# EXPERIMENTAL DETAILS: Metabolic (microsomal) stability assay, human liver microsomes (HLM)
# Format: in vitro ADME
# CONDITION: 1 μM test compound, predicted clearance as percent of liver blood flow
PROPERTY LABEL: HLM QH (%)

Fill blank: measured HLM QH of the molecule C[C@H](Oc1nc(-c2noc3c2CCC[C@@]32CCCc3sc(N)c(C#N)c32)nc2c1COC[C@@]21CCOC1)[C@@H]1CCCN1C is ____.
29

Next molecule: CO[C@@H]1C[C@@H]([C@H](C)Oc2nc(-c3noc4c3CCC[C@@]43CCCc4sc(N)c(C#N)c43)nc3c2n(C)c(=O)n3[C@@]23COC[C@@H]2C3)N(C)C1
52

A = C[C@H](Oc1nc(-c2onc3c2CCC[C@@]32CCCc3sc(N)c(C#N)c32)nc2c1n(C)c(=O)n2[C@H]1CO[C@@H](C)C1)[C@@H]1CC[C@H](C)N1C
B = CO[C@@H]1C[C@@H]([C@H](C)Oc2nc(-c3noc4c3CCC[C@@]43CCCc4sc(N)c(C#N)c43)nc3c2COC[C@]32CCOC2)N(C)C1
Please indicate which item has the smaller measured HLM QH: A versus B Please respond with the label that marks your chosen entry.
A
(A: 35%, B: 64%)
